Organism: Rattus norvegicus
Assay: Open TG-GATES - Regimen: Daily Repeat
Assay type: toxicity, organism-based, Sprague-Dawley
Parameters: regimen Daily Repeat, gender Male, age 6 weeks
Conditions: in vivo, po, 0 mg/kg, […], tissue Blood, route gavage, dose level Control, time 28 day
quantityName: Neu (%)

compound	unitsSymbol	result
CN1C(=O)CN=C(c2ccccc2)c2cc(Cl)ccc21 [DIAZEPAM]	%	9
NNC(=O)c1ccncc1 [ISONIAZID]	%	9.2
CCCNC(=O)NS(=O)(=O)c1ccc(Cl)cc1 [CHLORPROPAMIDE]	%	17
CCOc1ccc(NC(=O)CC(C)O)cc1 (stereo unspecified) [BUCETIN]	%	16.6
COc1ccc2[nH]c([S+]([O-])Cc3ncc(C)c(OC)c3C)nc2c1 (stereo unspecified) [OMEPRAZOLE]	%	13
CCOC(=O)CCC(=O)O[C@H]1[C@H](O[C@@H]2[C@@H](C)[C@H](O[C@H]3C[C@@](C)(OC)[C@@H](O)[C@H](C)O3)[C@@H](C)C(=O)O[C@H](CC)[C@@](C)(O)[C@H](O)[C@@H](C)C(=O)[C@H](C)C[C@@]2(C)O)O[C@H](C)C[C@@H]1N(C)C [ERYTHROMYCIN ETHYLSUCCINATE]	%	13

* * *

Organism: Rattus norvegicus
Experiment: Open TG-GATES - Regimen: Daily Repeat
Format: toxicity, organism-based, Sprague-Dawley
Set-up: regimen Daily Repeat, gender Male, age 6 weeks
Settings: in vivo, po, 300 mg/kg, […], tissue Plasma, route gavage, dose level Middle, time 14 day

compound	TP (g/dL)
COC1=CC(=O)C[C@@H](C)[C@]12Oc1c(Cl)c(OC)cc(OC)c1C2=O	5.9
COc1ccc2[nH]c([S+]([O-])Cc3ncc(C)c(OC)c3C)nc2c1 (stereo not given)	6
CCOc1ccc(NC(=O)CC(C)O)cc1 (stereo not given)	6.3
NC(N)=Nc1nc(CSCCC(N)=NS(N)(=O)=O)cs1	5.7
CCOC(=O)CCC(=O)O[C@H]1[C@H](O[C@@H]2[C@@H](C)[C@H](O[C@H]3C[C@@](C)(OC)[C@@H](O)[C@H](C)O3)[C@@H](C)C(=O)O[C@H](CC)[C@@](C)(O)[C@H](O)[C@@H](C)C(=O)[C@H](C)C[C@@]2(C)O)O[C@H](C)C[C@@H]1N(C)C [ERYTHROMYCIN ETHYLSUCCINATE]	5.5

* * *

AST listing for selected molecules.
Species: Rattus norvegicus
Assay: Open TG-GATES - Regimen: Daily Repeat
Assay type: toxicity, organism-based, Sprague-Dawley
Parameters: regimen Daily Repeat, gender Male, age 6 weeks
Settings: in vivo, po, 10 mg/kg, […], tissue Plasma, route gavage, dose level Low, time 28 day
quantityName: AST (IU/L)

> print(dat)
                                   molecule  quantityname  result
1                CN(C)CCN(Cc1cccs1)c1ccccn1           AST    73.4
2  CC(C)OC(=O)C(C)(C)Oc1ccc(C(=O)c2ccc(Cl)cc2)cc1 [FENOFIBRATE]           AST    63.2
3             CN(C)CCCN1c2ccccc2CCc2ccccc21           AST    62.2
4  CC1=C(/C=C/C(C)=C/C=C/C(C)=C/CO)C(C)(C)CCC1           AST    69.4

Origin of measurements: ChEMBL document CHEMBL3885861
